target: β-catenin/BCL9 PPI (Homo sapiens, UniProt P35222); construct: Wild-type full-length β-catenin were cloned into a pET-28b vector; made in house; host or cells: Escherichia coli BL21 DE3 (β-catenin); BCL9 peptide chemically synthesized; assay: AlphaScreen competitive inhibition assay of the β-catenin/BCL9 PPI; assay type: binding; details: experiment 2; mean ± SD, triplicate; Ki derived from IC50 (Nikolovska-Coleska equation); read-out: Ki (μM ± SD) experiment 2
Attribute measured: Ki (µM)
All answers are understood in µM, so give the number only.

The examples below pair each entry with its known result.
Compound | System | Value reported
O=C(Nc1cc(F)cc(C(=O)N2CCN(C(=O)c3ccc(O[C@H]4CCNC4)c(C4CCCCC4)c3)CC2)c1)C1CCNCC1 [Compound 5, ditrifluoroacetate] | β-catenin/BCL9 PPI (Homo sapiens, UniProt P35222) | 160
NCCCC(=O)Nc1cc(F)cc(C(=O)N2CCN(C(=O)c3ccc(O[C@H]4CCNC4)c(C4CCCCC4)c3)CC2)c1 [Compound 1] | β-catenin/BCL9 PPI (Homo sapiens, UniProt P35222) | 310
CC(C)(CN)C(=O)Nc1cc(F)cc(C(=O)N2CCN(C(=O)c3ccc(O[C@H]4CCNC4)c(C4CCCCC4)c3)CC2)c1 [Compound 4, ditrifluoroacetate] | β-catenin/BCL9 PPI (Homo sapiens, UniProt P35222) | 310
CC(C)(N)C(=O)Nc1cc(F)cc(C(=O)N2CCN(C(=O)c3ccc(O[C@H]4CCNC4)c(C4CCCCC4)c3)CC2)c1 [Compound 3, ditrifluoroacetate] | β-catenin/BCL9 PPI (Homo sapiens, UniProt P35222) | 550
CN(C(=O)C(C)(C)N)c1cc(F)cc(C(=O)N2CCN(C(=O)c3ccc(O[C@H]4CCNC4)c(C4CCCCC4)c3)CC2)c1 [Compound 8, ditrifluoroacetate] | β-catenin/BCL9 PPI (Homo sapiens, UniProt P35222) | 71

Then there is this compound:
Enquiry: Return value of Ki for input NCCCCC(=O)Nc1cc(F)cc(C(=O)N2CCN(C(=O)c3ccc(O[C@H]4CCNC4)c(C4CCCCC4)c3)CC2)c1 [Compound 2] , no commentary.
Return: 220

---

target: β-catenin/BCL9 PPI (Homo sapiens); construct: Wild-type full-length β-catenin were cloned into a pET-28b vector; made in house; host or cells: Escherichia coli BL21 DE3 (β-catenin); BCL9 peptide chemically synthesized; assay: AlphaScreen competitive inhibition assay of the β-catenin/BCL9 PPI; type: binding; conditions: experiment 1; mean ± SD, triplicate; Ki derived from IC50 (Nikolovska-Coleska equation); read-out: Ki (μM ± SD) experiment 1
Below is a list of entries, each paired with its recorded Ki value.
Write down the numeric answer in µM and omit the unit.

Consider the worked cases shown below.
Compound | Units | Ki
CN(C(=O)C1CCNCC1)c1cc(F)cc(C(=O)N2CCN(C(=O)c3ccc(O[C@H]4CCNC4)c(C4CCCCC4)c3)CC2)c1 [Compound 10, ditrifluoroacetate] | µM | 420
CN(C(=O)CCCN)c1cc(F)cc(C(=O)N2CCN(C(=O)c3ccc(O[C@H]4CCNC4)c(C4CCCCC4)c3)CC2)c1 [Compound 6, ditrifluoroacetate] | µM | 840
NCCCCC(=O)Nc1cc(F)cc(C(=O)N2CCN(C(=O)c3ccc(O[C@H]4CCNC4)c(C4CCCCC4)c3)CC2)c1 | µM | 230

Enquiry: State its Ki: NCCCC(=O)Nc1cc(F)cc(C(=O)N2CCN(C(=O)c3ccc(O[C@H]4CCNC4)c(C4CCCCC4)c3)CC2)c1
Return: 310

Enquiry: Please list Ki recorded for the compound CN(C(=O)C(C)(C)N)c1cc(F)cc(C(=O)N2CCN(C(=O)c3ccc(O[C@H]4CCNC4)c(C4CCCCC4)c3)CC2)c1 [Compound 8, ditrifluoroacetate]
Return: 32

Enquiry: Respond only with Ki recorded for CC(C)(CN)C(=O)Nc1cc(F)cc(C(=O)N2CCN(C(=O)c3ccc(O[C@H]4CCNC4)c(C4CCC(C(F)(F)F)CC4)c3)CC2)c1 (some centres unmarked) [Compound 11, ditrifluoroacetate]
Return: 170

---

Molecular target: β-catenin/BCL9 PPI (Homo sapiens, UniProt P35222)
Construct: Wild-type full-length β-catenin were cloned into a pET-28b vector; made in house; host or cells: Escherichia coli BL21 DE3 (β-catenin); BCL9 peptide chemically synthesized
Sequence (P35222 1-781): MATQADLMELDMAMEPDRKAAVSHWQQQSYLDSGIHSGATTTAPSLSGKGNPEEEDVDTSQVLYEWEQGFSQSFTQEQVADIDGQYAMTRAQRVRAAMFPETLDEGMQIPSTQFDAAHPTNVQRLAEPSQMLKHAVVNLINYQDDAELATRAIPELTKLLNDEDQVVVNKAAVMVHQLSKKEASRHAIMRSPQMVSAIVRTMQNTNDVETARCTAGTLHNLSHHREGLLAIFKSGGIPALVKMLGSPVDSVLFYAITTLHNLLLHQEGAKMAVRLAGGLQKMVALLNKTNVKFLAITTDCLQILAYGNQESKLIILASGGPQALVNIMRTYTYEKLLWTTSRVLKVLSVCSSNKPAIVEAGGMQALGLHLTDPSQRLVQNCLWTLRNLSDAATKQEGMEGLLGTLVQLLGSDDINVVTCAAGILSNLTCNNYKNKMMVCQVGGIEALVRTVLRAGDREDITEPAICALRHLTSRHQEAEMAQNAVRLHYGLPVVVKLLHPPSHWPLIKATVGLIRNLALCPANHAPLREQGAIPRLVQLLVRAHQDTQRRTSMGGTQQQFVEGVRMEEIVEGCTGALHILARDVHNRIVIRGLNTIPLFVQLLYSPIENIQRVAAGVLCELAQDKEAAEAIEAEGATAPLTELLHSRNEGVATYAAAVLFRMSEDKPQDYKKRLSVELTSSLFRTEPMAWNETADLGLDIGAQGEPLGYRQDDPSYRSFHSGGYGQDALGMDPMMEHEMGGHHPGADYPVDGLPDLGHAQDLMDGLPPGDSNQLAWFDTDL
Experiment: AlphaScreen competitive inhibition assay of the β-catenin/BCL9 PPI
Assay type: binding
Conditions: experiment 4; mean ± SD, triplicate; Ki derived from IC50 (Nikolovska-Coleska equation); read-out: Ki (μM ± SD) experiment 4
Where a name gives a salt, the structure may show the parent alone.
Attribute measured: log10 of Ki (log10 of the value in µM)
In our notation, the value equals log10 of Ki in µM.

// solved cases for log10 of Ki follow
Compound | System | log10 of Ki
CC[C@H]1CN(C(=O)c2cc(F)cc(NC(C)=O)c2)CCN1C(=O)c1ccc(O[C@H]2CCNC2)c(C2CCCCC2)c1 [Compound 14, trifluoroacetate] | β-catenin/BCL9 PPI (Homo sapiens, UniProt P35222) | 2.89
CC(=O)Nc1cc(F)cc(C(=O)N2CCN(C(=O)c3ccc(O[C@H]4CCNC4)c(C4CCCCC4)c3)CC2)c1 [Compound 12, trifluoroacetate] | β-catenin/BCL9 PPI (Homo sapiens, UniProt P35222) | 1.57
CC(=O)Nc1cc(F)cc(C(=O)N2CCN(C(=O)c3ccc(O[C@H]4CCNC4)c(C4CCCCC4)c3)[C@@H](CC(C)C)C2)c1 [Compound 16, trifluoroacetate] | β-catenin/BCL9 PPI (Homo sapiens, UniProt P35222) | 2.30

Enquiry: Tell me log10 of Ki reported for CC(=O)Nc1cc(F)cc(C(=O)N2CCN(C(=O)c3ccc(O[C@H]4CCNC4)c(C4CCCCC4)c3)[C@@H](C(C)C)C2)c1 [Compound 15, trifluoroacetate]
Return: 2.46

Enquiry: Report log10 of Ki, nothing else, for this compound: CC(=O)Nc1cc(F)cc(C(=O)N2CCN(C(=O)c3ccc(O[C@H]4CCNC4)c(C4CCCCC4)c3)[C@@H](C)C2)c1 [Compound 13, trifluoroacetate]
Return: 2.00

---

Molecular target: β-catenin/BCL9 PPI (Homo sapiens, UniProt P35222)
Construct: Wild-type full-length β-catenin were cloned into a pET-28b vector; made in house; host or cells: Escherichia coli BL21 DE3 (β-catenin); BCL9 peptide chemically synthesized
Experiment: AlphaScreen competitive inhibition assay of the β-catenin/BCL9 PPI
Assay type: binding
Conditions: experiment 2; mean ± SD, triplicate; Ki derived from IC50 (Nikolovska-Coleska equation); read-out: Ki (μM ± SD) experiment 2
Description: Protein expression and purification. Wild-type full-length β-catenin were cloned into a pET-28b vector carrying a C-terminal 6×histidine (Novagen), and transformed into Escherichia coli BL21 DE3 (Novagen). […] The purity of β-eaten in was greater than 95% as determined by SDS-PAGE gel analysis. […] Protein unfolding was evaluated through measuring the S15 fluorescence changes of fluorescent dye Sypro Orange when interacting with wild-type or mutant β-catenin proteins. […]
Here the recorded Ki is given for each entry.
Response body: numeric value in µM, unit text excluded.

Known results for compounds:
Compound | Units | Ki
CN(C(=O)C1CCNCC1)c1cc(F)cc(C(=O)N2CCN(C(=O)c3ccc(O[C@H]4CCNC4)c(C4CCCCC4)c3)CC2)c1 [Compound 10, ditrifluoroacetate] | µM | 76
CN(C(=O)CCCN)c1cc(F)cc(C(=O)N2CCN(C(=O)c3ccc(O[C@H]4CCNC4)c(C4CCCCC4)c3)CC2)c1 [Compound 6, ditrifluoroacetate] | µM | 380
CC(C)(CN)C(=O)Nc1cc(F)cc(C(=O)N2CCN(C(=O)c3ccc(O[C@H]4CCNC4)c(C4CCC(C(F)(F)F)CC4)c3)CC2)c1 (some centres unmarked) [Compound 11, ditrifluoroacetate] | µM | 150

Enquiry: # return recorded Ki for input CN(C(=O)CCCCN)c1cc(F)cc(C(=O)N2CCN(C(=O)c3ccc(O[C@H]4CCNC4)c(C4CCCCC4)c3)CC2)c1 [Compound 7, ditrifluoroacetate]
Return: 240
